Test system: CD2F1 mice, L1210 leukemia ip, survival T/C
experimental protocol: NCI In Vivo Anticancer Drug Screen. Data for tumor model L1210 Leukemia (intraperitoneal) in CD2F1 (CDF1) mice
run conditions: endpoint: mean survival time; dose: 5.0 mg/kg/injection; schedule: Q01DX009 (ip); vehicle: saline with Tween-80; higher = longer survival
Toxic doses and inconclusive results are not listed.
Listed here are molecules together with their documented T/C.

Past entries and their recorded results:
{"columns": ["molecule", "target or system", "T/C"],
 "data": [
  ["CC([NH-])C[NH-].[Cl][Pt+2][Cl] (centres undefined)", "CD2F1 mice, L1210 leukemia ip, survival T/C", "86 % of control"],
  ["CCCCCCCCOC(=O)C12Oc3ccc(-c4ccc5c(c4O)C(O)=C4C(=O)CC(C)C(O)C4(C(=O)OCCCCCCCC)O5)c(O)c3C(O)=C1C(=O)CC(C)C2O (centres undefined)", "CD2F1 mice, L1210 leukemia ip, survival T/C", "97 % of control"],
  ["CN(C)CCC(=O)c1ccc([N+](=O)[O-])cc1", "CD2F1 mice, L1210 leukemia ip, survival T/C", "95 % of control"]
]}

Turning now to a further molecule:
Param readout = T/C; param system = CD2F1 mice, L1210 leukemia ip, survival T/C; param query = CC(C)(C#N)N1CCCCC1 ; response: value
98 % of control
